For each record, write down the corresponding % residual binding after heat treatment (room temperature = 100%).
Target: T1, FLAG-tagged human APRIL (human, UniProt O75888 105-250, limits assumed)
T1 construct: also called FLAG-tagged APRIL; FLAG-APRIL; not shown: FLAG tag
T1 sequence (looked up): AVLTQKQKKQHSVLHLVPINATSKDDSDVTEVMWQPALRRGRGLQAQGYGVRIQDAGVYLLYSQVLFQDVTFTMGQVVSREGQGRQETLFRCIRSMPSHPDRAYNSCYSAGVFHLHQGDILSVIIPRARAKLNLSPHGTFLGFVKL
Assay: FLAG-APRIL ELISA after 10 min at 65 °C, antibody at 3.16 µg/ml
Reply with just the number (in %).

Just so you know, measured % residual binding after heat treatment (room temperature = 100%) for hAPRIL.01A (antibody, mouse IgG1, kappa, V domains shown, Mouse antibody; also called mouse hAPRIL.01A antibody) VH: EVQLQQSGPELVKPGASVKMSCKASGYTFTSYVMHWVKQKPGQGLEWIGYINPYNDAPKYNEKFKGKATVTSDKSSGTAYMELSSLTSEDSAVYYCARGLGYALYYAMDYWGQGTSVTVSS VL: DIVMTQSQKFKSTSVGDRVSVTCKASQNVGNNVAWYQQKAGQSPKALISSASNRDSGVPDRFTGSGSGTDFTLTISNVQSEDLADYFCQQYNIYPFTFGSGTKLEIKR came out at 27.1

VH14.VL15 (antibody, human IgG4 S228P, kappa, V domains shown, Humanized IgG4 (S241P, Kabat) with human kappa, from HEK293T) VH: QVQLVQSGAEVKKPGASVKVSCKASGYTFTSYVMHWVRQAPGQGLEWMGYINPYNDAPKYNEKFKGRVTMTRDTSASTAYMELSSLRSDDTAVYYCARGLGYALYYAMDYWGQGTTVTVSS VL: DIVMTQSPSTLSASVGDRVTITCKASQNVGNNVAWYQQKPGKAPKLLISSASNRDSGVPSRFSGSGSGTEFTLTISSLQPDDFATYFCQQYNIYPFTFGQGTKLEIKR yielded % residual binding after heat treatment (room temperature = 100%) of 58.6

For this binder ( VH13.VL15 (antibody, human IgG4 S228P, kappa, V domains shown, Humanized IgG4 (S241P, Kabat) with human kappa, from HEK293T; also called 13.15) VH: QVQLVQSGAEVKKPGASVKVSCKASGYTFTSYVMHWVRQAPGQGLEWMGYINPYNDAPKYNEKFKGRVTMTRDTSTSTVYMELSSLRSEDTAVYYCARGLGYALYYAMDYWGQGTMVTVSS VL: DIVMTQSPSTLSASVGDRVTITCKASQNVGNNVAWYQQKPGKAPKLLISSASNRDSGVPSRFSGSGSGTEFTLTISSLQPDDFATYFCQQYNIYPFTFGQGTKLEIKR ), measured % residual binding after heat treatment (room temperature = 100%) is 76.2

binder VH11.VL15 (antibody, human IgG4 S228P, kappa, V domains shown, Humanized IgG4 (S241P, Kabat) with human kappa, from HEK293T; also called 11.15) VH: QVQLVQSGAEVKKPGASVKVSCKASGYTFTSYVMHWVRQAPGQRLEWMGYINPYNDAPKYNEKFKGRVTITRDTSASTAYMELSSLRSEDTAVYYCARGLGYALYYAMDYWGQGTTVTVSS VL: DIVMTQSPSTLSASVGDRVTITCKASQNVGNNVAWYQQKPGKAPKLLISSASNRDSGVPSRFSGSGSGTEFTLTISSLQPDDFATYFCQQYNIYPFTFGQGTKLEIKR , % residual binding after heat treatment (room temperature = 100%) observed: 63.1

These entries and their values trace back to patent US20160264674A1.
